Hey, just so you know, these numbers are from PubChem BioAssay.

PROTOCOL_TEXT: human hepatoma cell viability loss – ATP luminescence, cytotoxicity control for P. falciparum antimalarial project, primary screen (AID 2303);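 note: 0% = DMSO wells and 100% = digitonin-killed cells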
CONDITIONS_USED: HepG2 viability, 24-48 h, at 10 µM, active compounds read high
Readings of inhibition for the listed compounds
RESULT_TYPE: inhibition (%)

[[record]]
compound = "COCCNCc1ccc(-c2cccc(CNc3ccc(OC)cc3)c2)cc1"
result_type = "inhibition"
reported_result = 16

[[record]]
compound = "CCCCn1c(Sc2ccc(C#N)c([N+](=O)[O-])c2)nnc1-c1ccc(OC)cc1"
result_type = "inhibition"
reported_result = 12

[[record]]
compound = "Nc1nc(N)c2c(ccc3nn(C4CCCC4)cc32)n1"
result_type = "inhibition"
reported_result = 44

[[record]]
compound = "O=C(O)c1ccc(NC(=O)C2CC(=O)N(Cc3ccc(Cl)cc3)C(=Nc3ccc(Cl)cc3)S2)cc1 (stereo unspecified)"
result_type = "inhibition"
reported_result = -1

[[record]]
compound = "CC1(C)N=C(NC(=O)Nc2ccc([N+](=O)[O-])cc2)N=C(N)N1OCc1cccc2ccccc12"
result_type = "inhibition"
reported_result = 35

[[record]]
compound = "COc1cc(NC(=O)C(c2ccc(Cl)cc2)C(C)C)cc(OC)c1 (stereo unspecified)"
result_type = "inhibition"
reported_result = 5

